Can you tell me Post-emergence action against MATIN in % for the items I'm about to list?
- System: Matricaria inodora (MATIN)
- Protocol: Post-emergence herbicidal action against MATIN
- Assay type: in vivo
- Protocol conditions: dosage 320 g/ha
Answers are plain numbers, in %.

{"columns": ["Compound", "Measurement target", "Unit annotation", "Data value"],
 "data": [
  ["O=C(O)COc1nn(-c2nc(F)ccc2F)c(-c2ccc(F)nc2)c1Br", "Matricaria inodora (MATIN)", "%", 80],
  ["COC(=O)COc1nn(-c2ncccc2F)c(-c2ccc(F)nc2)c1Br", "Matricaria inodora (MATIN)", "%", 100],
  ["O=C(O)CSc1nn(-c2ccccn2)c(-c2cncc(F)c2)c1I", "Matricaria inodora (MATIN)", "%", 80]
]}

Give Post-emergence action against MATIN in % for each listed item.
1. COC(=O)CCOC(=O)COc1nn(-c2ccccn2)c(-c2ccc(Cl)nc2)c1Br
2. COCCOC(=O)COc1nn(-c2ccccn2)c(-c2ccc(F)nc2)c1Br
3. CCOC(=O)COc1nn(-c2ncccc2F)c(-c2cncc(F)c2)c1C(F)(F)F
4. COC(=O)CCOC(=O)[C@@H](C)Oc1nn(-c2ccccn2)c(-c2cncc(F)c2)c1Cl
5. COC(=O)[C@@H](C)Oc1nn(-c2ncccc2F)c(-c2cncc(F)c2)c1I
6. COC(=O)C(C)NC(=O)[C@@H](C)Oc1nn(-c2ccccn2)c(-c2cncc(F)c2)c1Br (stereo partly shown)

Solution:
1. 80
2. 80
3. 90
4. 80
5. 90
6. 80

For each listed entry, give its Post-emergence action against MATIN in %.
1. Cc1cccnc1-n1nc(OCC(=O)O)c(Cl)c1-c1cncc(F)c1
2. O=C(COc1nn(-c2ncccc2F)c(-c2ccc(F)nc2)c1C1CC1)OCC1CCCC1
3. C=C(COC(=O)COc1nn(-c2ccccn2)c(-c2ccc(F)nc2)c1Br)C(=O)OC
4. COC(=O)[C@@H](C)Oc1nn(-c2ncccc2F)c(-c2ccc(F)nc2)c1Br

Solution:
90
90
80
100

----------
Assignment: determine reported Pre-emergence action against ORYSA in % for the given compounds.
- System: Oryza sativa (ORYSA)
- Format: in vivo
- Protocol conditions: pre-emergence, 80 g/ha, crop plant compatibility, in comparison to untreated controls
Numbers only, in %.

Recorded Pre-emergence action against ORYSA in %, per entry:
{"columns": ["Compound", "Pre-emergence action against ORYSA in % / %"],
 "data": [
  ["COC(=O)[C@H](C)COC(=O)COc1nn(-c2ccnc(Cl)c2)c(-c2ccc(F)nc2)c1Br", 0],
  ["CCOC(=O)C(C)Oc1nn(-c2ccccn2)c(-c2ccc(F)nc2)c1C(F)(F)F (stereo not shown)", 10],
  ["COCCOC(=O)COc1nn(-c2ccccn2)c(-c2ccc(F)nc2)c1Br", 20]
]}

// Pre-emergence action against ORYSA in % value for `CSCCOC(=O)COc1nn(-c2ccccn2)c(-c2ccc(F)nc2)c1Br` : 0

----------
- Tested on: Zea mays (ZEAMX)
- Assay type: in vivo
- Protocol conditions: pre-emergence, 80 g/ha, crop plant compatibility, in comparison to untreated controls
Measurement type: Pre-emergence action against ZEAMX in %

Here's what some known entries look like.
{"columns": ["Smiles input", "Pre-emergence action against ZEAMX in %"],
 "data": [
  ["O=C(O)COc1nn(-c2ccccn2)c(-c2ccc(F)nc2)c1F", "0%"],
  ["CCOC(=O)COc1nn(-c2ccccn2)c(-c2ccc(Cl)nc2)c1Br", "0%"]
]}

Please fill in: Pre-emergence action against ZEAMX in % reported for `COC(=O)[C@@H](C)Oc1nn(-c2ccccn2)c(-c2ccc(Cl)nc2)c1Cl` = 0%

----------
- System: Echinochloa crus-galli (ECHCG)
- Protocol: Post-emergence herbicidal action against ECHCG
- Assay type: in vivo
- Protocol conditions: dosage 80 g/ha
Measurement type: Post-emergence action against ECHCG in % (%)
Give bare numbers, in %.

{"columns": ["Compound", "Measurement target", "Data value"],
 "data": [
  ["COC(=O)[C@@H](C)Oc1nn(-c2nc(F)ccc2F)c(-c2cncc(F)c2)c1Cl [Example I-154]", "Echinochloa crus-galli (ECHCG)", 80],
  ["CCOC(=O)COc1nn(-c2nc(F)ccc2F)c(-c2cncc(F)c2)c1Br [Example I-193]", "Echinochloa crus-galli (ECHCG)", 90],
  ["COC(=O)[C@@H](C)Oc1nn(-c2ccnc(Cl)c2)c(-c2ccc(F)nc2)c1Br [III-22]", "Echinochloa crus-galli (ECHCG)", 100],
  ["C[C@@H](Oc1nn(-c2ccccn2)c(-c2cncc(F)c2)c1Cl)C(=O)O [Example I-218]", "Echinochloa crus-galli (ECHCG)", 80],
  ["O=C(COc1nn(-c2ncccc2F)c(-c2ccc(F)nc2)c1C1CC1)OCC(F)(F)F [Example I-326]", "Echinochloa crus-galli (ECHCG)", 90]
]}

For each of the items listed, what is its Post-emergence action against ECHCG in %?
1. Cc1cccnc1-n1nc(OCC(=O)O)c(Br)c1-c1cncc(F)c1 [Example I-204]
2. CCOC(=O)COc1nn(-c2ncccc2C(F)(F)F)c(-c2ccc(F)nc2)c1Br [Example I-335]
3. C=C(COC(=O)COc1nn(-c2ccccn2)c(-c2ccc(F)nc2)c1Br)C(=O)OC [Example I-370]
4. O=C(O)COc1nn(-c2nc(F)ccc2F)c(-c2cncc(F)c2)c1Cl [Example I-231]
5. COC(=O)CCOC(=O)[C@@H](C)Oc1nn(-c2ccccn2)c(-c2ccc(F)nc2)c1Br [Example I-290]
6. O=C(O)CSc1nn(-c2ccccn2)c(-c2cncc(F)c2)c1I [Example I-229]
7. CCOC(=O)COc1nn(-c2nc(F)ccc2F)c(-c2cncc(F)c2)c1C1CC1 [Example I-149]

Solution:
1: 80; 2: 80; 3: 80; 4: 80; 5: 80; 6: 80; 7: 80

Log: Echinochloa crus-galli (ECHCG), compound C[C@@H](Oc1nn(-c2ncccc2F)c(-c2cncc(F)c2)c1Cl)C(=O)O [Example I-165] , Post-emergence action against ECHCG in % = 90

----------
- Tested on: Amaranthus retroflexus (AMARE)
- Protocol: Post-emergence herbicidal action against AMARE
- Type: in vivo
- Protocol conditions: 80 g/ha, visual rating about 3 weeks after treatment vs untreated controls (100% = plants have died, 0% = like control plants)
Measurement type: Post-emergence action against AMARE in % (%)
Answers are plain numbers, in %.

See these solved cases before continuing.
{"columns": ["Molecule", "Data value"],
 "data": [
  ["COC(=O)COc1nn(-c2ncccc2F)c(-c2ccnc(F)c2)c1Br", 80],
  ["CSCCOC(=O)COc1nn(-c2ccccn2)c(-c2ccc(F)nc2)c1Br", 80],
  ["C[C@@H](Oc1nn(-c2ccnc(Cl)c2)c(-c2ccc(F)nc2)c1Br)C(=O)O", 80],
  ["C[C@@H](Oc1nn(-c2ccccn2)c(-c2cncnc2)c1Cl)C(=O)O", 90],
  ["CC(NC(=O)[C@@H](C)Oc1nn(-c2ccccn2)c(-c2ccc(F)nc2)c1Cl)C(=O)O (stereo partly drawn)", 90],
  ["O=C(O)COc1nn(-c2ccccn2)c(-c2ccnc(F)c2)c1Br", 90],
  ["COC(=O)CCOC(=O)[C@@H](C)Oc1nn(-c2ccccn2)c(-c2cncc(F)c2)c1Cl", 80],
  ["CS(=O)(=O)CCOC(=O)COc1nn(-c2ccccn2)c(-c2ccc(F)nc2)c1Br", 80]
]}

Turning now to a further record.
Measured Post-emergence action against AMARE in % (Amaranthus retroflexus (AMARE)), entry O=C(COc1nn(-c2ccccn2)c(-c2ccc(F)nc2)c1Br)OCC1CCOC1 (stereo not drawn) : 80

----------
- System: Zea mays (ZEAMX)
- Assay type: in vivo
- Protocol conditions: 20 g/ha, ZEAMX, effect in comparison to untreated controls
Measurement type: Post-emergence action against ZEAMX in % (crop plant compatibility) (%)
Answers are plain numbers, in %.

Sample records with Post-emergence action against ZEAMX in % (crop plant compatibility):
{"columns": ["Compound", "Data value"],
 "data": [
  ["COC(=O)C(C)COC(=O)[C@@H](C)Oc1nn(-c2ccccn2)c(-c2ccc(F)nc2)c1Cl (stereo partly shown) [Example I-267]", 0],
  ["O=C(O)COc1nn(-c2ncccc2F)c(-c2cncc(F)c2)c1Cl [Example I-169]", 10],
  ["CCOC(=O)COc1nn(-c2ccccn2)c(-c2ccc(F)nc2)c1Cl [Example I-100]", 10]
]}

COCCOCCOC(=O)[C@@H](C)Oc1nn(-c2ncccc2F)c(-c2ccc(F)nc2)c1Br [Example I-34] has a reported Post-emergence action against ZEAMX in % (crop plant compatibility) of 10
